Target: IKBKB (human)
Experiment: radiometric filter-binding kinase assay, Kinase HotSpot
Details: compound 0.5 µM; ATP 10 µM
Measured residual activity, listed per entry for reference.
Hi! Could you send only the number? It should be in %, unit omitted.

compound structure string: CC#CC(=O)Nc1cc2c(Nc3ccc(F)c(Cl)c3)ncnc2cn1
observation type: residual activity
test result: 102

compound structure string: CCN(CC)CCNC(=O)c1c(C)[nH]c(/C=C2\C(=O)Nc3ccc(F)cc32)c1C
observation type: residual activity
test result: 81

compound structure string: c1ccc(-c2n[nH]cc2-c2ccnc3ccccc23)nc1
observation type: residual activity
test result: 105

compound structure string: CNC(=O)c1cc(Oc2ccc(NC(=O)Nc3ccc(Cl)c(C(F)(F)F)c3)cc2)ccn1
observation type: residual activity
test result: 88.3

compound structure string: O=C1NC(=O)c2c1c1c3ccccc3n3c1c1c2c2ccccc2n1C1CCC3O1
observation type: residual activity
test result: 97.8

compound structure string: CCOC(=O)c1c(C)[nH]c(/C=C2\C(=O)Nc3ccccc32)c1C
observation type: residual activity
test result: 101

compound structure string: c1ccc(-c2n[nH]c3c2oc2ccccc23)cc1
observation type: residual activity
test result: 92.2

compound structure string: N#C/C(=C(/N)Sc1ccc(N)cc1)c1ccccc1C(F)(F)F
observation type: residual activity
test result: 100

May I ask what residual activity has been recorded for "Nc1ccc2ncnc(NCCc3ccc(Oc4ccccc4)cc3)c2c1" ?
100

May I ask what residual activity has been recorded for "O=C(Nc1cccc(Nc2nccc(Nc3cccc(C(F)(F)F)c3)n2)c1)C1CC1" ?
97.9

May I ask what residual activity has been recorded for "CCN(CC)C(=O)c1ccc(Nc2nc(OCC3CCCCC3)c3nc[nH]c3n2)cc1" ?
97.3

May I ask what residual activity has been recorded for "Nc1cccc(-c2cc3c(Oc4cccc(O)c4)ncnc3[nH]2)c1" ?
90.8

May I ask what residual activity has been recorded for "CC(C)N(CCC(=O)c1ccc2ccccc2c1)Cc1ccccc1" ?
101
